Tested on: Weanling male Sprague-Dawley derived rats
assay remarks: in vivo periosteal and endosteal bone apposition rates and endosteal resorption rates (tetracycline/DCAF double label, tibial sections)
Parameters: unit not given here
study conditions: dose 16 uM, subcutaneous daily, 10 days, rat tibia; control 4.0
Assignment: determine reported EBAR (endosteal bone apposition rate) for the given molecules.
Lab note: jot the number down without any unit.

Given the molecule `O=C(O)Cc1nc2ccccc2[nH]1` , what is its reported EBAR (endosteal bone apposition rate)?
3.4

Given the molecule `O=C(O)Cc1cc2ccccc2s1` , what is its reported EBAR (endosteal bone apposition rate)?
3.9

Given the molecule `O=C(O)c1cc2ccccc2s1` , what is its reported EBAR (endosteal bone apposition rate)?
3.4

Given the molecule O=P(O)(O)C(Cl)(Cl)P(=O)(O)O [Cl2MDP, dichloro-methylene-diphosphonate] , what is its reported EBAR (endosteal bone apposition rate)?
3.2

* * *

Test system: Weanling male Sprague-Dawley derived rats
assay remarks: in vivo periosteal and endosteal bone apposition rates and endosteal resorption rates (tetracycline/DCAF double label, tibial sections)
study conditions: dose 16 uM, subcutaneous daily, 10 days, rat tibia; control 14.7
Assignment: determine reported P BAR (periosteal bone apposition rate) for the given compounds.
Lab note: jot the number down without any unit.

Given the compound `O=C(O)Cc1cc2ccccc2s1` , what is its reported P BAR (periosteal bone apposition rate)?
18.1

Given the compound O=P(O)(O)C(Cl)(Cl)P(=O)(O)O [Cl2MDP, dichloro-methylene-diphosphonate] , what is its reported P BAR (periosteal bone apposition rate)?
14.8

Given the compound `O=C(O)c1cc2ccccc2s1` , what is its reported P BAR (periosteal bone apposition rate)?
16.2

Given the compound `O=C(O)Cc1nc2ccccc2[nH]1` , what is its reported P BAR (periosteal bone apposition rate)?
18.1
